assaySystem: glucosylceramide synthase (Homo sapiens)
Sequence (Q16739 whole entry): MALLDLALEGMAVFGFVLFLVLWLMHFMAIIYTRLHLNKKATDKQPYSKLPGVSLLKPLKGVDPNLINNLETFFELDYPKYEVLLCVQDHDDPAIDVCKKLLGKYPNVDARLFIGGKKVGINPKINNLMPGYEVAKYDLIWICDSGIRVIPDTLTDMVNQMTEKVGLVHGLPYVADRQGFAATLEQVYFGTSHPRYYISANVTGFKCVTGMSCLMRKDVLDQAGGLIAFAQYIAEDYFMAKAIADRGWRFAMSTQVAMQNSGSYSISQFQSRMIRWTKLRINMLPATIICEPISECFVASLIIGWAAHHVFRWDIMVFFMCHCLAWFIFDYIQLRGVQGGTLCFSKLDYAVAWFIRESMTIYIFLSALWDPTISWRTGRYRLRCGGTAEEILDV
experimentSummary: Glucosylceramide synthase enzyme assay ([14C]UDP-glucose, C8 ceramide, lysate of transfected HEK293 cells)
measurementContext: calculated using SAS Preclinical Package, ver. 5
measuredParameter: pIC50
The scale used: pIC50 is minus the common logarithm of the concentration in molar units.

Value of measured pIC50 for the entry CCCCCCCCCC(=O)N[C@H](CN1CCOCC1)[C@H](O)c1ccccc1 [D-PDMP] : 5.82
